Experiment: clinical
Conditions: human, in vivo, Vss
readout: Vd (L)
Respond with the bare value in L.

Query :: # lookup: Vd of C[C@@H](O)[C@H]1C(=O)N2C(C(=O)O)=C(S[C@@H]3CN[C@H](C(=O)N(C)C)C3)[C@H](C)[C@H]12 [meropenem, Meropenem]
Result :: 25.9

---

Assay: Example 6: noncompartmental plasma pharmacokinetics after third dose of the Combination (2 g meropenem/2 g Compound I q8h)
Conditions: both, human, plasma, intravenous, CL, Compound I 2 g q8h, All Subjects
readout: clearance (mL/min)
Respond with the bare value in mL/min.

Query :: # lookup: clearance of O=C(O)C[C@@H]1CC[C@H](NC(=O)Cc2cccs2)B(O)O1 [Compound I]
Result :: 168

Taken from patent US20190105337A1.
